- ASSAY TARGET: angiotensin II type 1 receptor (Oryctolagus cuniculus, UniProt P34976)
- Construct: By using a specimen of isolated rabbit blood vessels
- Sequence (P34976 whole entry): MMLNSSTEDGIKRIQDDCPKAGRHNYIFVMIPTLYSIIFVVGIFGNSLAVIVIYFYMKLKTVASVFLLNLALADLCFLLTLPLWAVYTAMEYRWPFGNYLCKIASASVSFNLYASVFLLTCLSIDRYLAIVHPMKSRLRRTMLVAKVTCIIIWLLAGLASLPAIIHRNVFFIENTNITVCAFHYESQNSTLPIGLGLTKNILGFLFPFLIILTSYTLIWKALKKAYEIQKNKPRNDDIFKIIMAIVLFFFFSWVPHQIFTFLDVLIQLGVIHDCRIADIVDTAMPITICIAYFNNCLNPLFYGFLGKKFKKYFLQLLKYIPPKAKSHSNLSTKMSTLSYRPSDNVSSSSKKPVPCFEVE
- METHOD SUMMARY: Angiotensin II antagonistic activity in isolated rabbit blood vessels
- SETTINGS: angiotensin II (10 nM)-induced contraction of rabbit thoracic aorta ring; read-out: Angiotensin II 50% inhibition concentration
MEASUREMENT KIND: IC50 (nM)

molecule_smiles=CCCCc1nc(-c2ccc(F)cc2)c(C(N)=O)n1Cc1ccc(-c2ccccc2-c2nnn[nH]2)cc1 endpoint_result=460
molecule_smiles=CCCCc1nc(-c2ncc(OCC)cn2)c(C(=O)OC)n1Cc1ccc(-c2ccccc2-c2nnn[nH]2)cc1 endpoint_result=1010
molecule_smiles=CCCCc1nc(-c2ccc(F)cc2)c(C(=O)OC)n1Cc1ccc(-c2ccccc2-c2noc(=O)[nH]2)cc1 endpoint_result=4070
molecule_smiles=CCCCc1nc(-c2ccc(F)cc2)c(C(=O)N2CCOCC2)n1Cc1ccc(-c2ccccc2-c2nnn[nH]2)cc1 endpoint_result=1600
